# credit: PubChem BioAssay (NCI)

Test system: IGROV1 ovarian
Experiment: NCI tumour cell line growth inhibition, 48 h
Assay readout: TGI

> print(dat)
                                   molecule  assay.readout    result
1  O=c1nc2c(c(-c3ccc(Br)cc3)[nH]1)COC/C2=C\c1ccc(Br)cc1            TGI   > 50 µM
2  COc1ccc(C2C3=C(COC3=O)Oc3cc4c(cc32)OCO4)c(OC)c1 (centres undefined)            TGI  > 100 µM
3     CCOC(=O)c1cc(/C=C/C(C)=C/C(=O)OC)oc1C            TGI  > 100 µM
4  Cc1cc(C)c(S(=O)(=O)N(CCCN)OCCCON(CCCN)S(=O)(=O)c2c(C)cc(C)cc2C)c(C)c1            TGI   3.86 µM
5  CCOc1cc(/C=N\Nc2nnc(C)n2N)c(C)cc1N(CCCl)CCCl            TGI  > 100 µM
6  Nc1ccc(C(=O)CC(N)C(=O)O)cc1O (centres undefined)            TGI  > 100 µM

Look at each molecule and report its TGI.
1. CCOC(=O)/C=C/C1=C(c2cccs2)c2ccccc2CC1
2. COc1ccc(/C=C2\CCCC(C(NO)c3ccc(OC)cc3)C2=NO)cc1 (centres undefined)

["94.9 µM", "> 100 µM"]

Hi, could you look up TGI for each item in my list?
1. CC[O-].CC[O-].O=S(=O)([O-])c1ccc([O-])c2ncccc12.O=S(=O)([O-])c1ccc([O-])c2ncccc12.[Ti+4]
2. COc1ccc(Cn2cc3c(c2)-c2oncc2CC3)cc1
3. CN(C)c1ccc(/C=C(\NC(=O)c2ccccc2)c2nn(C)c(=O)o2)cc1
4. COc1cc(-c2n/c(=C\c3c(O)[nH]c4ccc(Cl)cc34)cc3c2=Nc2ccccc2-3)ccc1F

1. > 100 µM
2. > 100 µM
3. > 100 µM
4. 5.17 µM

# batch size: 2; output TGI per entry
1. CCN(CC)C(=S)Oc1cc2oc(=O)cc(C)c2cc1Cl
2. OCCNc1ncnc2c1ncn2Cc1cccc(COc2cccc(OCc3cccc(Cn4cnc5c(NCCO)ncnc54)c3)c2)c1

1: > 100 µM; 2: 37.4 µM

---

System: 786-0 renal
Experiment: NCI tumour cell line growth inhibition, 48 h
I'd be grateful if you could share measured TGI for these entries.

> print(dat)
                                   molecule    result
1                CSC(SC)=C(C(=O)O)P(=O)(O)O  > 100 µM
2  CC1(C)OCC2OC3([C@@H]4OC(C)(C)O[C@H]4CO)OC(C)(C)OC3C2O1 (stereo not given in full)  > 100 µM
3                 C/C(CCc1ccccc1)=N\NC(N)=S  > 100 µM

Go through the list and state TGI for each entry.
1. CC1=NN(c2nc(N)nc(-c3sccc3N)n2)C(C)(C)C1
2. Cc1[nH]c(=O)nc(NCCNCCO)c1C(=O)Nc1cccc2cc3ccccc3cc12
3. COc1ccc(C2=NN(C=O)C(c3cccc(Nc4ccnc5cc(Cl)ccc45)c3)C2)cc1 (stereo not given)
4. COc1ccc(N2C(=O)[C@H]3CC(C)c4c([nH]c5ccccc45)[C@H]3C2=O)cc1 (stereo not given in full)
5. CC(=O)OCC1OC(n2c(-c3ccccc3)c(N=Nc3ccccc3)c(C)c(C#N)c2=S)C(OC(C)=O)C(OC(C)=O)C1OC(C)=O (stereo not given)
6. C[C@]12CCC(=O)[C@@H](CCC3=CC(=O)C=CC3=O)[C@@H]1CCC2=O
7. O=C(O)C1CCCCC1C(=O)O.[NH-]C1CCC1.[NH2-].[Pt+2] (stereo not given)

> 100 µM
> 100 µM
17.6 µM
16.4 µM
> 100 µM
41.1 µM
33 µM

---

System: NCI-H460 lung
Assay readout: GI50

Please review the following examples before continuing.
> print(dat)
                                   compound  assay.readout    result
1  CCn1c2ccc(O)cc2c2c(C)c3c[n+](C)ccc3c(C)c21           GI50  0.752 µM
2  Cc1cc2c(cc1Cl)SC1=NN(C)C(N(C)C)N1S2(=O)=O (stereo unspecified)           GI50  > 100 µM

For each of the compounds below, note its GI50.
1. Cc1cc2c(cc1C)N(C(=O)CCl)CCN2C(=O)CCl
2. CN(C)CCCNC(=O)c1ccc2c(c1)oc1cc3ccccc3c(=O)n12
3. CCOC(=O)/C=C/C1=C(c2cccs2)c2ccccc2CC1
4. Cc1nc2sccn2c1-c1csc(Nc2cccc(Cl)c2C)n1

["1.7 µM", "9.96 µM", "31.1 µM", "3.58 µM"]

---

System: NCI-H460 lung
Experiment: NCI tumour cell line growth inhibition, 48 h
For each of the compounds below, state its TGI.

Example compounds with recorded TGI:
> print(dat)
                                   compound    result
1  NCCCCNCCCNC(=O)c1nc(-c2nc(CCN)sc2Cl)sc1Cl  > 100 µM
2    OCCOCn1nncc1Cn1ncc2c(SCc3ccccc3)ncnc21  > 100 µM
3  O=c1nc2c(c(-c3ccc(Br)cc3)[nH]1)COC/C2=C\c1ccc(Br)cc1   > 50 µM
4            O=S(=O)(c1cc(Cl)ccc1Cl)n1ccnc1  > 100 µM
5  O=C(O)c1cccc2cccc(-c3cccc4cccc(C(=O)O)c34)c12  > 100 µM

Lab note: each compound below needs its TGI filled in.
1. COC(=O)C1(CCCCCBr)CCCCCCCCCCC1=O (stereo not given)
2. COc1cc(/C=C2\C(=O)Nc3ccc(N(C)C)cc32)cc(OC)c1OC
3. CCOC(=O)C1(C#N)C(c2ccccc2)CC(O)(c2ccc(Cl)cc2)C(C(=O)c2ccc(Cl)cc2)C1c1ccccc1 (stereo not given)
4. CC[C@H](Nc1nc(C)nc(N)c1C#N)c1nc2cccc(NCc3ccc(C(=O)NO)cc3)c2c(=O)n1-c1ccccc1
5. CN(C)CC1CCC/C(=C\c2ccc(OC(=O)c3ccc(Cl)cc3)cc2)C1=O (stereo not given)

["> 100 µM", "> 29.1 µM", "> 100 µM", "3.78 µM", "17.5 µM"]

---

System: MCF7 breast
Experiment: NCI tumour cell line growth inhibition, 48 h; in the data active = GI50 below about 0.43 µM; inactive = the rest
Hi there, use one of these labels in your reply, thanks! class 1 (active), class 0 (inactive)

> print(dat)
                                   compound  experimental.system    class
1  COc1ccc2[nH]c(O)c(C(=Nc3ccc(N(C)C(=O)CN4CCN(C)CC4)cc3)c3ccccc3)c2c1          MCF7 breast  class 0
2  CN1C(=O)N(C)C2C1NN=c1s/c(=C\c3ccc(F)cc3)c(=O)n12 (stereo not drawn)          MCF7 breast  class 0
3  COc1cc2cc(C(=O)N3C[C@H](CCl)c4c3cc(N)c3ccccc43)[nH]c2c(OC)c1OC          MCF7 breast  class 1

Recorded call for NC(N)=NCCC1OC(=O)C2=C1c1c(O)ccc3nccc(c13)O2 (stereo not drawn) ? class 0

# lookup: test call for `CCOc1cccc(/C=N/NC(=O)C(=O)Nc2cccc(C(F)(F)F)c2)c1O` class 0

So what was the verdict on `Cc1[nH]nc(C(=O)n2nc(N)c3ccccc32)c1[N+](=O)[O-]` in this test? class 0

I would be grateful if you could indicate the recorded call for `COc1cc(-c2cn(-c3ccc(Cl)c(Cl)c3)c(=O)n2C(C)=O)cc(OC)c1OC` . class 0

For this compound, state the assay outcome: `Nc1ccccc1C#C/C=C\C#Cc1ccccc1[N+](=O)[O-]` class 0

---

System: NCI-H226 lung
Experiment: NCI tumour cell line growth inhibition, 48 h
Assay readout: TGI

Worked cases, answers included:
Molecule	Assay readout	Result
CCC(O)(Cc1ccc(OC)cc1)c1ccc(OC)cc1 (stereo not given)	TGI	> 100 µM
Cc1cc(S(=O)(=O)/N=C(/C(=C=[N-])C#N)[n+]2ccc(N(C)C)cc2)c(SCC(=O)O)cc1Cl	TGI	> 100 µM
COC(=O)C1CCc2sc3ncnc(Nc4cn[nH]c4C(=O)Nc4ccc(CN5CCN(C)CC5)cc4)c3c21 (stereo not given)	TGI	> 100 µM

Please state, for each entry, its recorded TGI.
1. CCCCC1=C(C(=O)N2CCOCC2)C2(OCCO2)C1=O
2. C[C@]12CCC(=O)[C@@H](CCC3=CC(=O)C=CC3=O)[C@@H]1CCC2=O
3. C/C=C/C=C/C=C/C=C/C(=O)O
4. CSc1cc(=O)n2c3ccccc3c3ccnc1c32

["20.5 µM", "57.3 µM", "> 100 µM", "> 100 µM"]
